Listed next: entries and their corresponding kon.
biological target: T1, Human CD27 ECD, monomeric soluble (construct limits not stated) (human, UniProt P26842 20-191); assay: Biacore SPR, purified mAb
T1 construct: extracellular domain; target of the Biacore assays; also called monomeric soluble CD27; CD27-His
T1 sequence (P26842 20-191): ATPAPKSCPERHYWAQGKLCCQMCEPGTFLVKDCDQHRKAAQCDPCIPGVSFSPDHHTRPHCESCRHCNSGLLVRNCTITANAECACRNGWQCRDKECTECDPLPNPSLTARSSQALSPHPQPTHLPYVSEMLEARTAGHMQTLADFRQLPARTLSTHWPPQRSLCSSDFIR
Numeric answer only, unit M⁻¹ s⁻¹ assumed.

M708 (antibody, V domains shown, also called single-gene DNA ID 708) VH: EVQLLESGGGLVQPGGSLRLSCAASGFTFSSYTMSWVRQAPGKGLEWVSVIDHGGGSTHYPDSVKGRFTISRDNSKNTLYLQMNSLRAEDTAVYYCARHRGNPFDYWGQGTLVTVSS VL: DIQMTQSPSSLSASVGDRVTITCRASKSVSTSGYSFMHWYQQKPGKAPKLLIYVGSRLDYGVPSRFSGSGSGTDFTLTISSLQPEDFATYYCQHSRELPWTFGQGTKVEIK
643000
M694 (antibody, V domains shown, also called single-gene DNA ID 694) VH: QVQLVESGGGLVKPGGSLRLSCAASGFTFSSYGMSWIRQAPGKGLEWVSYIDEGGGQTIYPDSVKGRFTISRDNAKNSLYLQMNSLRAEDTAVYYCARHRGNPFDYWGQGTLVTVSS VL: DIQMTQSPSSLSASVGDRVTITCRASKSVSEGRWSFMHWYQQKPGKAPKLLIYVASRLESGVPSRFSGSGSGTDFTFTISSLQPEDIATYYCQHSRELPWTFGQGTKVEIK
480000

Here's the next entry for you.
Query string: // query kon value for entry M707 (antibody, V domains shown, also called single-gene DNA ID 707) VH: EVQLLESGGGLVQPGGSLRLSCAASGFTFSSYTMSWVRQAPGKGLEWVSAIDHGGGQTLYPDSVKGRFTISRDNSKNTLYLQMNSLRAEDTAVYYCARHRGNPFDYWGQGTLVTVSS VL: DIQMTQSPSSLSASVGDRVTITCRASKSVSHVRWSFMHWYQQKPGKAPKLLIYLASNLESGVPSRFSGSGSGTDFTLTISSLQPEDFATYYCQHSRELPWTFGQGTKVEIK
Result string: 585000
